# pIC50 per entry
Biological target: GST-fused human V158 FcγRIIIa (extracellular region) (human) (UniProt P08637)
Sequence (P08637 17-208 F176V): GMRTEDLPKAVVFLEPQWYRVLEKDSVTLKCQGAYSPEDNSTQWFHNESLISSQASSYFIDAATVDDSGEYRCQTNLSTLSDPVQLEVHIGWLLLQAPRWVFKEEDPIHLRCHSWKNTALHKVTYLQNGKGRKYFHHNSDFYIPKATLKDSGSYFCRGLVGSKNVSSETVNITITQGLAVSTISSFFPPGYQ
Test: AlphaScreen competition with biotin-WT AC10
# pIC50: negative log10 of molar concentration; output just the value

>  <BINDER>
AC10 H1L2 (H1 AC10 VH, L2 AC10 VL) (antibody, from a related filing, IgG1, V domains shown) VH: QIQLVQSGPEVKKPGASVKVSCKASGYTFTDYYITWVRQAPGQGLEWMGWIYPGSGNTKYNEKFQGRVTITVDTSASTAYMELSSLRSEDTAVYFCANYGNYWFAYWGQGTLVTVSS VL: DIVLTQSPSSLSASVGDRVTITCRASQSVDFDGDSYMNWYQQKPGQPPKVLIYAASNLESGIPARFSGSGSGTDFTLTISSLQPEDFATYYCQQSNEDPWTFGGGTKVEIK

>  <QUANTITY NAME>
pIC50

>  <OBS VALUE>
6.47

$$$$
>  <BINDER>
AC10 H2L1 (H2 AC10 VH, L1 AC10 VL) (antibody, from a related filing, IgG1, V domains shown) VH: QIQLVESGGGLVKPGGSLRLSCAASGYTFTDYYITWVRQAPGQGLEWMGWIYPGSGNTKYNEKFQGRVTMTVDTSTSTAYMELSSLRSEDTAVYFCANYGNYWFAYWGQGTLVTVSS VL: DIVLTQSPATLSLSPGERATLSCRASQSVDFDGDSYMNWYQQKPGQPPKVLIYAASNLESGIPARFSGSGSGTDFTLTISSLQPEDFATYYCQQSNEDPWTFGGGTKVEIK

>  <QUANTITY NAME>
pIC50

>  <OBS VALUE>
6.12

$$$$

Consider now this further binder.
Data request: Which pIC50 value belongs to AC10 H3L3 (H3 AC10 VH, L3 AC10 VL) (antibody, from a related filing, IgG1, V domains shown) VH: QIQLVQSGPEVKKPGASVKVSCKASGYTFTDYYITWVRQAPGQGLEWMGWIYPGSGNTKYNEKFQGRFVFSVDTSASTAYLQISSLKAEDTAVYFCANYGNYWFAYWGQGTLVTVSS VL: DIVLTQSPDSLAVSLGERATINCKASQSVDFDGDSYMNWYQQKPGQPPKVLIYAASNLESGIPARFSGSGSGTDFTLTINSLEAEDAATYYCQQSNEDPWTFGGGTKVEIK ?
Data returned: 7.08
